biological target: NMDAR2D expressing HEK cell membranes (Homo sapiens, UniProt O15399+Q05586); construct: expressed in transfected cells; host or cells: HEK cells (membrane extract); experiment: NMDAR agonist assay, [3H]MK-801 binding, NMDAR2D; format: biochemical; conditions: read-out: NMDAR2D: % maximal [3H]MK-801 binding relative to 1 mM glycine
Sequence (O15399 28-1336, other chains not shown): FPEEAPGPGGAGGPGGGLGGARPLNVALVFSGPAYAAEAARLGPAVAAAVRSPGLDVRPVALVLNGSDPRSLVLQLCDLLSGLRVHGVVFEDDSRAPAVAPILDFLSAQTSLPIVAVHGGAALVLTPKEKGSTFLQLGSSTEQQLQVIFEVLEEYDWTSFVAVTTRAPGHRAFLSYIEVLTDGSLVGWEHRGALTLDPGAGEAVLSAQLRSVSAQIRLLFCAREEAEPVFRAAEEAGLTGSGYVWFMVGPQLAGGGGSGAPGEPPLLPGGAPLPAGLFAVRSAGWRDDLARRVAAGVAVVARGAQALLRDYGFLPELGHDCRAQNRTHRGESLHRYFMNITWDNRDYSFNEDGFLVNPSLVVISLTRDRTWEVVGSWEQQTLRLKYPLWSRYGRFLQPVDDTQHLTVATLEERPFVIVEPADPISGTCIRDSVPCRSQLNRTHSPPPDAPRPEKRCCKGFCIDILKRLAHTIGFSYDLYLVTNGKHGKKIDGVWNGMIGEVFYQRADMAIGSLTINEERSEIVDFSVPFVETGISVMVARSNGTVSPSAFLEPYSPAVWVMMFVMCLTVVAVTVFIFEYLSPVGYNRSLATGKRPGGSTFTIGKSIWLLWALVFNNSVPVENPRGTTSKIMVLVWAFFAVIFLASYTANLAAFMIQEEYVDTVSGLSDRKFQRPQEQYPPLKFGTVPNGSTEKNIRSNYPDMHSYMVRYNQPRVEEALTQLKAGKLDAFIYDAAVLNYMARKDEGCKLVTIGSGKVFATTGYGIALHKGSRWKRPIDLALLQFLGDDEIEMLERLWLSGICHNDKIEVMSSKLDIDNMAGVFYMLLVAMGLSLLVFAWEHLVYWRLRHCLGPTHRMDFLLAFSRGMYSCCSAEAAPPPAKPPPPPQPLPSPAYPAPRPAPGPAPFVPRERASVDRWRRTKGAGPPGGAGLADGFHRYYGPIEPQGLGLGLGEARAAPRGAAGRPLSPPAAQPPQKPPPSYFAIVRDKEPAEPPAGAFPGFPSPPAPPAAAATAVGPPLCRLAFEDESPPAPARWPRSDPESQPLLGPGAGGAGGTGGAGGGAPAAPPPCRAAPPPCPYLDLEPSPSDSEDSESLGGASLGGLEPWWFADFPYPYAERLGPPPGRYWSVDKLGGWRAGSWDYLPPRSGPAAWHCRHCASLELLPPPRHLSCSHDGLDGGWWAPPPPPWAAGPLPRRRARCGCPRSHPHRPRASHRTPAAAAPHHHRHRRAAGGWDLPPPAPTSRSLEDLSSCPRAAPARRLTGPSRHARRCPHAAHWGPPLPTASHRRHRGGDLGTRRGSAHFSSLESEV
Emax by entry:

Use the examples below as a reference point.
# Compound, Emax
measured = [
    ("CC(C)CN1[C@]2(CC[C@]13CNC3=O)CNC2=O", "< 100%"),
    ("CN1C2(CCC13CNC3=O)CNC2=O (single isomer, unassigned)", "< 100%"),
    ("CC(C)CN1[C@@]2(CC[C@@]13CNC3=O)CNC2=O", "0%"),
]

Let's switch to this compound now.
Memo: O=C1NCC12CCC1(CNC1=O)N2 (single isomer, unassigned) , reported Emax: < 100%

----------
molecular target: NMDAR2A expressing HEK cell membranes (Homo sapiens, UniProt Q05586+Q12879); construct: expressed in transfected cells; host or cells: HEK cells (membrane extract); test: NMDAR agonist assay, [3H]MK-801 binding, NMDAR2A; format: biochemical; conditions: 50 μM glutamate; relative to 1 mM glycine; read-out: NMDAR2A: % maximal [3H]MK-801 binding relative to 1 mM glycine
Sequence (Q12879 23-1464, other chains not shown): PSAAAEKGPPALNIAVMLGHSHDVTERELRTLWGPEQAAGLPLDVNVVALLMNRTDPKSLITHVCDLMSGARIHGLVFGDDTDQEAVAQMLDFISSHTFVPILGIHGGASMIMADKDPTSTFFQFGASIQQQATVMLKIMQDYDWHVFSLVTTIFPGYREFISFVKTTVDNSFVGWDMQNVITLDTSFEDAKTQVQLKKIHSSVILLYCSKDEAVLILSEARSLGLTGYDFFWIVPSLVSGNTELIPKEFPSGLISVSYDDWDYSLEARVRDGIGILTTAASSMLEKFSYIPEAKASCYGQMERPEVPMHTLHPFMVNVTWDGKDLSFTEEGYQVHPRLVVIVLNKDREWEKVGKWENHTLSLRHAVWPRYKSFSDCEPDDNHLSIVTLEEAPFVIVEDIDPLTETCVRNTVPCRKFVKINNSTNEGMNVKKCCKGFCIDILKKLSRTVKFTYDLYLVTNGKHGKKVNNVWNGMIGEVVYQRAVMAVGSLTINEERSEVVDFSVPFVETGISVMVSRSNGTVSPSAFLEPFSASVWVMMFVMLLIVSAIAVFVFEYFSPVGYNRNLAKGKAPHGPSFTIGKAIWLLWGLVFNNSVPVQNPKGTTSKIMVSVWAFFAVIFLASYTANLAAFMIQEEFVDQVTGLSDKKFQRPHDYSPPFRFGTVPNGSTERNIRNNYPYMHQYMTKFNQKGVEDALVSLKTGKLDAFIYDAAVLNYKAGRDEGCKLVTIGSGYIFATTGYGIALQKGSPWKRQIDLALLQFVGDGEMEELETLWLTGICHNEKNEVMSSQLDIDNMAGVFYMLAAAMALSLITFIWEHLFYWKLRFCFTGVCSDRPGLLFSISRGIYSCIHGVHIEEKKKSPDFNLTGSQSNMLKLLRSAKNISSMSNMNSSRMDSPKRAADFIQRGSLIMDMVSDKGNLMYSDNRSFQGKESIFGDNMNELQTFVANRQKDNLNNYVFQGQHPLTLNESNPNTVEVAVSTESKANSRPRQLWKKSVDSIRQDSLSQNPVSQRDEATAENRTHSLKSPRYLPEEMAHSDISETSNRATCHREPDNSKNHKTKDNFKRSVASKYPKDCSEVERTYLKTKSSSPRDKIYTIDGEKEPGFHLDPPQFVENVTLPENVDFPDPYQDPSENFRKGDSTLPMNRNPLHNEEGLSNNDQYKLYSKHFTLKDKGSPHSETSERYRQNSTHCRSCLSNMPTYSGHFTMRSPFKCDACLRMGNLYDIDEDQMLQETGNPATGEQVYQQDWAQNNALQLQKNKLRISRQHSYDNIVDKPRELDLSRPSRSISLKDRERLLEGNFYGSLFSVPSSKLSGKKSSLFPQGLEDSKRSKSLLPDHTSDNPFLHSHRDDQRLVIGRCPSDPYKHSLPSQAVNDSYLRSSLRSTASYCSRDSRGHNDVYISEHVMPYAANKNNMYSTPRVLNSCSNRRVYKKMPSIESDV
Reported Emax values for a set of compounds

In plain terms, CC(C)C(=O)N1C2(CCC13CNC3=O)CNC2=O (single isomer, unassigned) has a documented Emax of < 100%

Briefly, Emax measured for C[C@@H](O)[C@@H](C(N)=O)N(C)CC1CCC2(CN(OCc3ccccc3)C2=O)N1C(=O)OC(C)(C)C (stereo partly shown) : < 100%

Lab book: Emax of C[C@@H](O)[C@H](NCC1CCC2(CN(OCc3ccccc3)C2=O)N1C(=O)OC(C)(C)C)C(N)=O (stereo partly shown) noted as 0%

// Emax value for CC(C)CN1C(C(=O)N[C@H](C(N)=O)[C@@H](C)O)CCC12CNC2=O (single isomer, unassigned) : < 100%

----------
Overview of recorded Emax for various compounds
Biological target: NMDAR2B expressing HEK cell membranes (Homo sapiens, UniProt Q05586+Q13224)
Construct: expressed in transfected cells; host or cells: HEK cells (membrane extract)
Sequence (Q13224 27-1484, other chains not shown): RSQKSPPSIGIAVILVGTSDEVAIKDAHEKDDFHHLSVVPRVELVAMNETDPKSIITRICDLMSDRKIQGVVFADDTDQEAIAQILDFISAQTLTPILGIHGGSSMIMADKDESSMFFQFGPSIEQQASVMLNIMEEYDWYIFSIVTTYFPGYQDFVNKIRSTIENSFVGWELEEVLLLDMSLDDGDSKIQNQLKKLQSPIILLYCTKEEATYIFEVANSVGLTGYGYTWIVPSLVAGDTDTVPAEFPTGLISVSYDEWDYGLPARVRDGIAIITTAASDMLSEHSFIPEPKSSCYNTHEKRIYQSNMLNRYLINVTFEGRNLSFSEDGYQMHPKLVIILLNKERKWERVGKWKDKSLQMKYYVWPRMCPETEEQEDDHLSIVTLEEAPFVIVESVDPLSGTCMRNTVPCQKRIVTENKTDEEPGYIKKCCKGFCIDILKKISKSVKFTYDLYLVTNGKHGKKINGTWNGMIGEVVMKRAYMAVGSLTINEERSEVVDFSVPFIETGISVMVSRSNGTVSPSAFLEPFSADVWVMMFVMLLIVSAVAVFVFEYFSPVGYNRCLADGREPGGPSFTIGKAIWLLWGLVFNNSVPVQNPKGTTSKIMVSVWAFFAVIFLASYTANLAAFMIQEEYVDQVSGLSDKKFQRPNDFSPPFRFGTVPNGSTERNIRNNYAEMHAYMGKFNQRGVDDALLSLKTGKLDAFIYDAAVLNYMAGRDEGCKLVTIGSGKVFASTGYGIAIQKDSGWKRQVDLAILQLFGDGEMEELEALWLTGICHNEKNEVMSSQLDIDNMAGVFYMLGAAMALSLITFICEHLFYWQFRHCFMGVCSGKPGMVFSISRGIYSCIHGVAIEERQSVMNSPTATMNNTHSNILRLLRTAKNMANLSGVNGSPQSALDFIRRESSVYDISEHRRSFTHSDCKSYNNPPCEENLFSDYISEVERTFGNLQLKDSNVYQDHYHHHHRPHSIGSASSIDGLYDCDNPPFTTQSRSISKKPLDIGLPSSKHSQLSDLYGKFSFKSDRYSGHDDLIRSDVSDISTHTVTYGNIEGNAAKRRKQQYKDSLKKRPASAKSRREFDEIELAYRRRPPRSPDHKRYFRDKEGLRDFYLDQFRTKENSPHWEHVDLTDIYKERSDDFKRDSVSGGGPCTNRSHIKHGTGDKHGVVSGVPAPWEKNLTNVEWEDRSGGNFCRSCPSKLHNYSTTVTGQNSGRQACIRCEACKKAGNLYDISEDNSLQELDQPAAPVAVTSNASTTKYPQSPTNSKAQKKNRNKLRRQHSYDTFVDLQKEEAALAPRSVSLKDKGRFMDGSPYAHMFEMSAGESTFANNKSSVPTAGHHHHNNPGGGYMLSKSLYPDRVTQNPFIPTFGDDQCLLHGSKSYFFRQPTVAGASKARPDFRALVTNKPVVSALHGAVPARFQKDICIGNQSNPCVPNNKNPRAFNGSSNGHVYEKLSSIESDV
Experiment: NMDAR agonist assay, [3H]MK-801 binding, NMDAR2B
Format: biochemical
Details: 50 μM glutamate; relative to 1 mM glycine; read-out: NMDAR2B: % maximal [3H]MK-801 binding relative to 1 mM glycine
Method: (nonequilibrium conditions). The baseline value was determined from the best fit curve of the DPM values modeled using the GraphPad program and the log(agonist) vs. response(three parameters) algorithm was then subtracted from all points in the dataset.

# Compound, Result
rows = [
    ("CNC(=O)C(C(C)O)N(C)CC1CCC2(CN(OCc3ccccc3)C2=O)N1 (single isomer, unassigned)", "< 100%"),
    ("CC(=O)N1C(C(=O)N[C@H](C(N)=O)[C@@H](C)O)CCC12CNC2=O (some centres unmarked)", "< 100%"),
    ("O=C1NCC12CN(Cc1ccc(F)cc1)C1(CNC1=O)C2 (single isomer, unassigned)", "< 100%"),
]

NMDAR2B expressing HEK cell membranes (Homo sapiens, UniProt Q05586+Q13224) assay, compound COc1ccc(CN2CC3(CC(N[C@H](C(N)=O)[C@@H](C)O)CN3)C2=O)cc1 (some centres unmarked) , recorded Emax = 0%

Lab entry: NMDAR2B expressing HEK cell membranes (Homo sapiens, UniProt Q05586+Q13224) assay, compound CC(O)C(NCC1CCC2(CNC2=O)N1)C(N)=O (single isomer, unassigned) , Emax = < 100%

Known value: NMDAR2B expressing HEK cell membranes (Homo sapiens, UniProt Q05586+Q13224) Emax of the compound C[C@@H](O)[C@@H](C(N)=O)N1CC2(CCC3(CN([C@H](C(N)=O)[C@@H](C)O)C3=O)N2C(=O)OC(C)(C)C)C1=O (some centres unmarked) equals > 100%

Known value: NMDAR2B expressing HEK cell membranes (Homo sapiens, UniProt Q05586+Q13224) Emax of the compound C[C@@H](O)[C@H](NC1CN(C(=O)OC(C)(C)C)C2(CNC2=O)C1)C(N)=O (single isomer, unassigned) equals 0%

NMDAR2B expressing HEK cell membranes (Homo sapiens, UniProt Q05586+Q13224) data for O=C1NCC12CCC1(CNC1=O)N2Cc1ccccc1 (single isomer, unassigned) ; its Emax: < 100%
